Where do these numbers come from? They come from paper PMC6925144.

Could you please report measured TSA(without NAD+) / Primary screening (TSA) / delta Tm (K) for the items listed next?
- assayed_target: NAD-dependent deacetylase Sirtuin 1 (human)
- measurement_description: primary screen, delta tm
- Parameters: single well (n = 1)
- run_conditions: 10 µM
The full ranking holds about 3,200 compounds; the median of “TSA(without NAD+) / Primary screening (TSA) / delta Tm (K)” is about -0.07, and the highest 2% start at about 0.37. The full list was thinned out, with the highest values kept by preference.
One number for each entry, in K.

Below: 5 compounds and their reported TSA(without NAD+) / Primary screening (TSA) / delta Tm (K).
1) NC(=O)Cn1cnc2c(cnn2-c2ccccc2)c1=O; -0.08
2) NC(=O)c1ccc(CN2CCSCC2)cc1; 0.06
3) CCCNC(=O)Nc1ccc(OC)cc1; -0.12
4) O=C(CC12CC3CC(CC(C3)C1)C2)NCC(=O)Nc1ccc(Sc2nc3ccccc3[nH]2)cc1; 0.18
5) O=C(NC(=S)Nc1ccc(-c2nc3ccccc3[nH]2)cc1)C12CC3CC(CC(C3)C1)C2; 0.58

For the 4 compounds below, give their TSA(without NAD+) / Primary screening (TSA) / delta Tm (K) values.
1. N#Cc1ccccc1Sc1ccccc1C(=O)Nc1ccc(-c2cn3cccnc3n2)cc1
2. NC(=O)C1CCN(c2ncnc3sc4c(c23)CCCC4)CC1
3. Cc1ccc(NC(=O)NCCc2cccc(O)c2)cc1NC(=O)NCCc1cccc(O)c1
4. O=C(OCc1cccc2ccccc12)C1CCCCN1c1ncccn1 (centres unmarked)

-0.14
0.28
0.38
-0.13

For the 2 compounds below, give their TSA(without NAD+) / Primary screening (TSA) / delta Tm (K) values.
1. O=C1CCCCC(C(=O)Nc2ccc(-c3nc4ccccc4[nH]3)cc2)N1 (centres unmarked)
2. Cc1sc2ncnc(N3CCC(C(N)=O)CC3)c2c1C

1. -0.03
2. -0.11

---

- assayed_target: NAD-dependent deacetylase Sirtuin 1 (human, UniProt Q96EB6)
- Sequence (Q96EB6 2-747 limits assumed): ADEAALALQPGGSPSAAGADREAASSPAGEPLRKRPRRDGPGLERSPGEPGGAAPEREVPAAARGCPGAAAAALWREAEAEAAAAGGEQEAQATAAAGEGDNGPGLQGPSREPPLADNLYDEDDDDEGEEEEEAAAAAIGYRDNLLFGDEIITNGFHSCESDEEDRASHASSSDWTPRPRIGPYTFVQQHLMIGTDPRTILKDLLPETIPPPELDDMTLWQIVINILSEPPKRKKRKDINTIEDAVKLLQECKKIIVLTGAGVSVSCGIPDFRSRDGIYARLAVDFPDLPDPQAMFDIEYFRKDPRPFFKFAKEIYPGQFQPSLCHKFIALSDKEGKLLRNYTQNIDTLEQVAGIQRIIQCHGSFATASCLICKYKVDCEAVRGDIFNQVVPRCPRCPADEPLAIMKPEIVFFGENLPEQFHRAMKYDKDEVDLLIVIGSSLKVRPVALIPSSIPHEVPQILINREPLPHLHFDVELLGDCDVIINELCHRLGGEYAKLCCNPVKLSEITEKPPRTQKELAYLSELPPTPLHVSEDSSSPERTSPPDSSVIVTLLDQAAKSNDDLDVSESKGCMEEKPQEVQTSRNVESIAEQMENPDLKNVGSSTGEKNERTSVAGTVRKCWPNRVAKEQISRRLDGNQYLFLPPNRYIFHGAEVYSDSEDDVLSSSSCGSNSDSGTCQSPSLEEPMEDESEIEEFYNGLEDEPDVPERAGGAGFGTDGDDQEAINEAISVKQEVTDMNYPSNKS
- measurement_description: primary screen, delta tm
- Set-up: single well (n = 1)
- run_conditions: 10 µM
- Procedure: A total of 3,192 compounds extracted from the proposed lists were first screened by thermal shift assay (TSA), which determined a melting temperature shift (ΔTm) of Sirtuin 1 upon the addition of a test compound at a concentration of 10 µM (n = 1) with primary hit criteria of ΔTm > 0.45 K or ΔTm < −1.5 K. Primary hits (48 compounds) were retested in the same assay at three concentrations (5, 10, 20 µM, n = 4) for hit confirmation and for dose-dependency check. […]
Over roughly 3,200 compounds, “TSA(without NAD+) / Primary screening (TSA) / delta Tm (K)” has its median near -0.07; the highest 2% begin near 0.37. Only a selection was taken, and the highest values are over-represented in it overall.
result_type: TSA(without NAD+) / Primary screening (TSA) / delta Tm (K)
One number for each entry, in K.

1) Cc1cc(S(=O)(=O)NCc2ccc(C(N)=O)cc2)sc1Cl; -0.11
2) O=C(COC(=O)CNC(=O)C12CC3CC(CC(C3)C1)C2)Nc1ccccc1Cc1ccccc1; 0.13
3) CC(O)CC(C)(C)CNC(=O)Nc1ccc(F)cc1 (stereo not drawn); -0.13
4) Cc1ccc(S(=O)(=O)N2CCN(C(=O)CSc3nnc(NCc4ccco4)s3)CC2)cc1; 0.16
5) COc1cc(/C=N/NC(=O)c2cc3c(s2)CCCC3)ccc1OS(=O)(=O)c1cc(C)ccc1C; 0.32

For the 8 compounds below, give their TSA(without NAD+) / Primary screening (TSA) / delta Tm (K) values.
1. CCOc1ccc(C2C(C(=O)c3ccco3)=C(O)C(=O)N2CCCN2CCOCC2)cc1 (stereo not drawn)
2. CCCOCC(=O)O
3. O=C1/C(=C/c2cccc(O)c2)Oc2cc(O)ccc21
4. CN(C)c1ccnc(N2CCCC(N3CCNC3=O)C2)n1 (stereo not drawn)
5. COc1ccc(C(N)=O)cc1NC(=O)c1nc2nc(C)cc(C)n2n1
6. NC(=O)c1cc2c(ccc3ccccc32)o/c1=N\c1ccc(Br)cc1
7. O=C(Nc1cccc(Cn2[nH]c(=O)ccc2=O)c1)c1cccc(Oc2ccccc2)c1
8. Cc1nc2ccccc2nc1SCc1cc(=O)n2ccsc2n1

[-0.13, -0.13, -0.21, -0.18, -0.15, -0.32, -0.13, 0.02]

For the 2 compounds below, give their TSA(without NAD+) / Primary screening (TSA) / delta Tm (K) values.
1. CCOc1ccc(Oc2ccc(NC(=O)CNC(=O)CC34CC5CC(CC(C5)C3)C4)cc2)cc1
2. CC(C)CC(=O)Nc1ccc(C(=O)COC(=O)CNC(=O)CC23CC4CC(CC(C4)C2)C3)cc1

[0.38, -0.04]

For the 7 compounds below, give their TSA(without NAD+) / Primary screening (TSA) / delta Tm (K) values.
1. O=C(CSc1nnnn1-c1ccc(O)cc1)N1N=C(c2ccc3ccccc3c2)CC1c1ccccc1 (stereo not drawn)
2. Cc1nc(N2CCC(C(N)=O)CC2)c2c3c(sc2n1)CCC3
3. NC(=O)c1ccc(C(=O)OCC(=O)c2cc3ccccc3o2)cc1
4. O=C(COC(=O)c1ccc(CNS(=O)(=O)c2ccc(F)c(Cl)c2)cc1)c1ccccc1
5. O=C(NC1(C(=O)N2CCN(C(=O)c3cnccn3)CC2)CCOC1)OCc1ccccc1 (stereo not drawn)
6. O=C(Nc1ccc(OC(F)F)c(Cc2ccccc2)c1)C1=COCCO1
7. NC(=O)C1CCN(c2ncnc3sc4c(c23)CCC4)CC1

[0.49, 0.07, -0.38, -0.03, -0.12, -0.12, -0.21]
